assay: RAM pathway blockade in budding yeast – dse1pr::URA3 reporter, 5-FOA selection, pilot screen (AID 869);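 also: 0% = DMSO wells with no growth and 100% = 10 µM 1-NA-PP1 with full growth; RAM network block rescues cells from 5-FOA so hits raise OD615 growth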; conditions: S. cerevisiae dse1pr::URA3 5-FOA growth, OD615, 2 d; at 10 µM; stronger effect = higher value; strain carries analog-sensitive mutant Cbk1 kinase
Parameter inhibition: see the listing below.

[
  {
    "molecule": "O=C(CCC(=O)OCC(=O)c1ccccc1)NC1CCCCC1",
    "scale_unit": "%",
    "inhibition": -0.295
  },
  {
    "molecule": "Oc1ccc2ccccc2c1CN1CCN(c2ccccc2F)CC1",
    "scale_unit": "%",
    "inhibition": 0.72
  },
  {
    "molecule": "O=C(CN1CCN(Cc2ccc(F)cc2)C1=O)NCc1cccs1",
    "scale_unit": "%",
    "inhibition": 0.97
  },
  {
    "molecule": "COC(=O)C1=C(C)Nc2nnnn2C1c1ccc(Cl)cc1Cl (stereo not given)",
    "scale_unit": "%",
    "inhibition": 0.54
  },
  {
    "molecule": "O=C(c1ccc2nc(N3CCOCC3)sc2c1)N1CCCC1",
    "scale_unit": "%",
    "inhibition": -0.14
  },
  {
    "molecule": "COc1cccc(-n2c(SCC(=O)Nc3cc(C)on3)nc3c([nH]c4ccccc43)c2=O)c1",
    "scale_unit": "%",
    "inhibition": 2.33
  },
  {
    "molecule": "O=C(C1CC1)N1CCc2cc(Br)cc(S(=O)(=O)N3CCOCC3)c21",
    "scale_unit": "%",
    "inhibition": 1.35
  },
  {
    "molecule": "COC(=O)c1cc(-c2ccccc2)sc1NC(=O)c1cc(C)on1",
    "scale_unit": "%",
    "inhibition": 1.4
  },
  {
    "molecule": "CCOc1ccccc1N1C(=O)c2cccnc2C1=O",
    "scale_unit": "%",
    "inhibition": 1.04
  },
  {
    "molecule": "O=C(C1CCN(S(=O)(=O)c2cccc3cccnc23)CC1)N1CCN(C2CCCCC2)CC1",
    "scale_unit": "%",
    "inhibition": 1.12
  }
]

----------
assay: RAM signaling pathway blockade in yeast – S. cerevisiae, Pdr1DBD-CYC8 efflux-inhibited sensitized strain, primary screen (AID 1298);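 also: 0% = DMSO untreated cells without growth and 100% = 10 µM 1-NA-PP1 full growth; higher means more yeast growth rescued from 5-FOA killing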; conditions: S. cerevisiae cbk1-as DSE1-URA3 strain, 5-FOA growth OD615, 2 d; at 50 µM; stronger effect = higher value
measurement_label: RAM network inhibition (%)

[
  {
    "compound": "N#Cc1nc(-c2ccc(Cl)cc2)oc1NCCc1ccccn1",
    "reading": 7.29
  },
  {
    "compound": "Cc1ccc(-c2noc(CN3CCN(c4ccccc4F)CC3)n2)cc1",
    "reading": 3.79
  },
  {
    "compound": "CCc1nnc(NC(=O)CSc2nnc(Cc3cccn3C)n2CCOC)s1",
    "reading": 2.84
  },
  {
    "compound": "Cc1cc(C(N)=O)c2cc(Br)ccc2n1",
    "reading": 0.89
  },
  {
    "compound": "O=C(COc1ccccc1)NCc1nnc(SCC(=O)Nc2nccs2)n1-c1ccccc1",
    "reading": 4.48
  },
  {
    "compound": "O=C(c1cccc(F)c1)N1CCc2ccccc21",
    "reading": 2.7
  },
  {
    "compound": "O=C(c1ccc(CNc2c(N3CCCC3)c(=O)c2=O)cc1)N1CCc2ccccc2C1",
    "reading": 0.72
  },
  {
    "compound": "Cc1cccc(N(CC(=O)N2CCCC2)S(=O)(=O)c2ccccc2)c1C",
    "reading": 3.22
  },
  {
    "compound": "CCOc1ccc(-n2nnc3c(=O)n(CC(=O)N4CCCc5ccccc54)cnc32)cc1",
    "reading": 2.69
  },
  {
    "compound": "Cn1c(=O)cc(NCCc2ccccc2)[nH]c1=O",
    "reading": 3.06
  },
  {
    "compound": "Cc1c(-n2c(CN3C(=O)c4ccccc4C3=O)nc3ccccc3c2=O)c(=O)n(-c2ccccc2)n1C",
    "reading": 5.4
  },
  {
    "compound": "CCCn1cc(SCC(=O)Nc2nnc(C)s2)c2ccccc21",
    "reading": 3.75
  },
  {
    "compound": "COc1cc(C(O)c2nc3ccccc3n2C)cc(OC)c1OC (centres undefined)",
    "reading": 0.78
  },
  {
    "compound": "O=C(c1cc(C2CC2)on1)N1CCN(C(c2ccccc2)c2ccccc2)CC1",
    "reading": 7.26
  },
  {
    "compound": "c1ccc(-c2nnc(CSc3nncs3)o2)cc1",
    "reading": 5.21
  },
  {
    "compound": "Cc1ccc(-c2nnc3n2N=C(c2ccccc2)CS3)cc1",
    "reading": 2.25
  },
  {
    "compound": "Cc1nnc(SCCn2c(N3CCC(Cc4ccccc4)CC3)nc3c2c(=O)[nH]c(=O)n3C)s1",
    "reading": 5.98
  },
  {
    "compound": "CCCCC(=O)NCCc1cc2c(C)ccc(C)c2[nH]c1=O",
    "reading": 0.32
  },
  {
    "compound": "O=C(c1cnc2n(c1=O)CCS2)N1CCc2ccccc21",
    "reading": -0.32
  },
  {
    "compound": "O=C(O)C1CC=CCC1C(=O)Nc1cccc(F)c1 (centres undefined)",
    "reading": 1.15
  },
  {
    "compound": "COc1cc(-c2nnc(COc3ccc4cc(Br)ccc4c3)o2)cc(OC)c1OC",
    "reading": 3.67
  },
  {
    "compound": "N#Cc1nc(-c2ccc(F)cc2)oc1NCc1ccccc1",
    "reading": 1.07
  },
  {
    "compound": "Cc1ccccc1-c1nnc(-c2ccc(Cl)cc2)o1",
    "reading": 6.89
  },
  {
    "compound": "COc1cccc(-n2c(SCC(=O)N3CCCC3)nc3c([nH]c4ccccc43)c2=O)c1",
    "reading": 7.87
  },
  {
    "compound": "COC(=O)c1cc(=O)[nH]c(SCc2cccc(C)c2)n1",
    "reading": 6.8
  },
  {
    "compound": "Cc1ccc(CSc2nc3c(c(=O)[nH]2)CCC3)cc1",
    "reading": 3.47
  },
  {
    "compound": "Cc1nc2ccccc2c2oc(C(=O)NCCCN3CCCC3=O)cc12",
    "reading": 6.62
  },
  {
    "compound": "CCN1CCN(C(=O)C2CCN(Cc3nc(-c4ccc(Cl)cc4)oc3C)CC2)CC1",
    "reading": 2.86
  },
  {
    "compound": "COc1ccccc1-n1c(=O)[nH]c2c(C(N)=O)nc(CC(C)C)nc21",
    "reading": 2.83
  },
  {
    "compound": "CCOC(=O)N1CCN(C(=O)c2ccc3nc4ccsc4c(=O)n3c2)CC1",
    "reading": -0.16
  },
  {
    "compound": "COc1ccc(-c2nc(CCNC(=O)c3ccco3)cs2)cc1OC",
    "reading": -1.56
  },
  {
    "compound": "Cc1c(NC(=O)c2ccc3c(c2)OCO3)cccc1-c1nc2ncccc2o1",
    "reading": 3.92
  },
  {
    "compound": "CC(=O)NCCc1ccc(S(=O)(=O)NCc2ccc3c(c2)OCO3)cc1",
    "reading": 1.84
  },
  {
    "compound": "Cc1ccc(N2C(=O)c3ccc(C(=O)N4CCN(c5ccccc5F)CC4)cc3C2=O)cc1",
    "reading": 4.71
  },
  {
    "compound": "CCCc1cc(=O)oc2cc(C)cc(OC(=O)c3ccco3)c12",
    "reading": 4.75
  },
  {
    "compound": "CCN(CC)C(=O)C1CCCN(c2ncnc3c2cnn3-c2ccc(Cl)cc2)C1 (centres undefined)",
    "reading": -2.04
  },
  {
    "compound": "COc1ccc(CNc2nc3c(c(=O)[nH]c(=O)n3C)n2Cc2ccccc2C)cc1",
    "reading": 2.1
  },
  {
    "compound": "Clc1ccc2nc3ccccn3c2c1",
    "reading": 2.48
  },
  {
    "compound": "CCCNc1nc(N2CCOCC2)nc(N2CCOCC2)n1",
    "reading": 2.19
  }
]
